Parameter 'readout' = pIC50; parameter 'system' = UniProtKB Q14790.
The meaning of pIC50 here: minus log10 of the concentration in molar units.

CC(=O)N[C@@H](CC(=O)O)C(=O)N[C@@H](CCC(=O)O)C(=O)N[C@H](C(=O)N[C@H](C=O)CC(=O)O)C(C)C
6.89
COc1ccc(OC)c(CC(=O)N[C@H](C(=O)N[C@@H](CC(=O)O)C(=O)CSCC2CCCCC2)C(C)C)c1
5.70
CC(C)[C@H](NC(=O)Cc1ccccc1)C(=O)N[C@@H](CC(=O)O)C(=O)CSCc1ccccc1
4.65

Below: the item to evaluate.
Entry CCOc1ccc(OCC(=O)OC)cc1CC(=O)N[C@H](C(=O)N[C@@H](CC(=O)O)C(=O)CSCc1c(F)cccc1Cl)C(C)C has what pIC50? 5.03

###

Quick reference for IC50 among some compounds
biological target: Caspase-8 (Homo sapiens, UniProt Q14790)
Sequence (Q14790 217-374 limits assumed): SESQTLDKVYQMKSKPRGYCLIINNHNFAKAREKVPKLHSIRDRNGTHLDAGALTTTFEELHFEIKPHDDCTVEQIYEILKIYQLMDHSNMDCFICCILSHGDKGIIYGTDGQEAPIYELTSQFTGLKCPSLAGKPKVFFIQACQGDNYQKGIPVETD
Sequence (Q14790 385-479 limits assumed): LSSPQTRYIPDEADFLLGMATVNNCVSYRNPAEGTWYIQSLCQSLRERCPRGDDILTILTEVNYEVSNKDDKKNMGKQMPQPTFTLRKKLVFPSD

Worked set:
COc1ccc(S(C)(=O)=O)cc1CC(=O)N[C@H](C(=O)N[C@@H](CC(=O)O)C(=O)CSCc1c(F)cccc1Cl)C(C)C
0.49 µM
CCOc1ccc(OCC(=O)O)cc1CC(=O)N[C@H](C(=O)N[C@@H](CC(=O)O)C(=O)CSCc1c(F)cccc1Cl)C(C)C
0.81 µM
COc1ccccc1CC(=O)N[C@H](C(=O)N[C@@H](CC(=O)O)C(=O)CSCc1ccccc1)C(C)C
15.5 µM

Now for a further compound.
For CCOc1ccc(OCC(=O)OC(C)C)cc1CC(=O)N[C@H](C(=O)N[C@@H](CC(=O)O)C(=O)CSCc1c(F)cccc1Cl)C(C)C , what is its reported IC50? 6.3 µM

###

Protein target, amino acids: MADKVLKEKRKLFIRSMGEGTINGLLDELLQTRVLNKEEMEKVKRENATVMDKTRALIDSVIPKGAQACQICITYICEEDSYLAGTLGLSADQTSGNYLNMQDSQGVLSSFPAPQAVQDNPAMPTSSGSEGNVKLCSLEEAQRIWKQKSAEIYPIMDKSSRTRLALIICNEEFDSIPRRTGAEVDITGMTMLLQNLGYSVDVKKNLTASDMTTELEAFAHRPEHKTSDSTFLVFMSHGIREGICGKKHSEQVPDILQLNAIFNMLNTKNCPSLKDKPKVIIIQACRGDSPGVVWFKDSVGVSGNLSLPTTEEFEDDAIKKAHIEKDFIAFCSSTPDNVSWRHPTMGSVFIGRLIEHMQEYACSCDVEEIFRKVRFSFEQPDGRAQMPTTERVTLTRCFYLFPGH
Property name: pIC50
// scale note: pIC50 = -log10(conc_M); give the bare number

Sample answers from the record:
COc1ccccc1CC(=O)N[C@H](C(=O)N[C@@H](CC(=O)O)C(=O)CSCc1ccccc1)C(C)C
4.55
COc1ccc(OC)c(CC(=O)N[C@H](C(=O)N[C@@H](CC(=O)O)C(=O)CSCc2c(F)cccc2Cl)C(C)C)c1
5.30
CC(C)[C@H](NC(=O)[C@H](C)NC(=O)[C@H](CC(=O)O)NC(=O)c1ccccc1)C(=O)N[C@@H](CC(=O)O)C(=O)CCCc1ccccc1
5.78

Next compound, please.
Reported pIC50 for CCOc1ccc(OCC(=O)O)cc1CC(=O)N[C@H](C(=O)N[C@@H](CC(=O)O)C(=O)CSCc1c(F)cccc1Cl)C(C)C : what is it? 5.42

###

What follows is a collection of pIC50 values obtained with Caspase-3 (Homo sapiens, UniProt P42574).
Sequence (P42574 29-175 limits assumed): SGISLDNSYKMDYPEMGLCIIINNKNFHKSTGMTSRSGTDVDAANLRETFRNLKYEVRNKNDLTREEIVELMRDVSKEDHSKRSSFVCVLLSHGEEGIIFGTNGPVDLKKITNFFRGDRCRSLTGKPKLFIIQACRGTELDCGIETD
Sequence (P42574 176-277 limits assumed): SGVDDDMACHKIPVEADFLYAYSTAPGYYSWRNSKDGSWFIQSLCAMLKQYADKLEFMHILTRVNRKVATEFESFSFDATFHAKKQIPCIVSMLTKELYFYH
// field semantics: pIC50 = negative decimal log of concentration (mol/L)

Examples with their reported pIC50 follow.
COc1ccc(OC)c(CC(=O)N[C@H](C(=O)N[C@@H](CC(=O)O)C(=O)CSCc2c(F)cccc2Cl)C(C)C)c1
7.14
COc1ccc(OC)c(CC(=O)N[C@H](C(=O)N[C@@H](CC(=O)O)C(=O)CSCC2CCCCC2)C(C)C)c1
7.20
COc1ccc(OC)c(CC(=O)N[C@H](C(=O)N[C@@H](CC(=O)O)C(=O)CSCC(C)C)C(C)C)c1
6.89

Find the recorded pIC50 belonging to CCOc1ccc(OCC(=O)OC(C)C)cc1CC(=O)N[C@H](C(=O)N[C@@H](CC(=O)O)C(=O)CSCc1c(F)cccc1Cl)C(C)C and report it. 7.03
